Mono values for the compounds below.
Organism: Rattus norvegicus
Assay: Open TG-GATES - Regimen: Single
Format: toxicity, organism-based, Sprague-Dawley
Design: regimen Single, gender Male, age 6 weeks
Conditions: in vivo, po, 1000 mg/kg, 6 h, tissue Blood, route gavage, dose level High
Output spec: scalar in %, unitless text.

CC(C)OC(=O)C(C)(C)Oc1ccc(C(=O)c2ccc(Cl)cc2)cc1 [FENOFIBRATE]; 2.4
COc1ccc2[nH]c([S+]([O-])Cc3ncc(C)c(OC)c3C)nc2c1 (stereo not given) [OMEPRAZOLE]; 4.4
CCOC(=O)CCC(=O)O[C@H]1[C@H](O[C@@H]2[C@@H](C)[C@H](O[C@H]3C[C@@](C)(OC)[C@@H](O)[C@H](C)O3)[C@@H](C)C(=O)O[C@H](CC)[C@@](C)(O)[C@H](O)[C@@H](C)C(=O)[C@H](C)C[C@@]2(C)O)O[C@H](C)C[C@@H]1N(C)C [ERYTHROMYCIN ETHYLSUCCINATE]; 3.2
NC(N)=Nc1nc(CSCCC(N)=NS(N)(=O)=O)cs1 [FAMOTIDINE]; 2.8

Turning to the following compound.
In: # lookup: Mono of COC1=CC(=O)C[C@@H](C)[C@]12Oc1c(Cl)c(OC)cc(OC)c1C2=O [GRISEOFULVIN]
Out: 4

###

Species on record: Rattus norvegicus
Experiment: Open TG-GATES - Regimen: Single
Assay type: toxicity, organism-based, Sprague-Dawley
Design: regimen Single, gender Male, age 6 weeks
Conditions: in vivo, po, 0 mg/kg, 24 h, tissue Plasma, route gavage, dose level Control
observable: GLC (mg/dL)
Unit mg/dL implied. Number only.

Some solved cases for reference:
COC1=CC(=O)C[C@@H](C)[C@]12Oc1c(Cl)c(OC)cc(OC)c1C2=O; 208.8
CCOc1ccc(NC(=O)CC(C)O)cc1 (centres undefined); 180.8
NC(N)=Nc1nc(CSCCC(N)=NS(N)(=O)=O)cs1; 186.4
Cc1ccc(C)c(OCCCC(C)(C)C(=O)O)c1; 187
CN(C)CCCN1c2ccccc2CCc2ccccc21; 185.4

In: What GLC value was documented for this compound, CCCNC(=O)NS(=O)(=O)c1ccc(Cl)cc1 [CHLORPROPAMIDE] ?
Out: 187

In: Return reported GLC; argument: `CN(C)CCN(Cc1cccs1)c1ccccn1`
Out: 188

In: Reported GLC, compound CCOC(=O)CCC(=O)O[C@H]1[C@H](O[C@@H]2[C@@H](C)[C@H](O[C@H]3C[C@@](C)(OC)[C@@H](O)[C@H](C)O3)[C@@H](C)C(=O)O[C@H](CC)[C@@](C)(O)[C@H](O)[C@@H](C)C(=O)[C@H](C)C[C@@]2(C)O)O[C@H](C)C[C@@H]1N(C)C [ERYTHROMYCIN ETHYLSUCCINATE] : ____
Out: 211.4

In: GLC for `CN(C)CCCN1c2ccccc2CCc2ccc(Cl)cc21` ?
Out: 176.4

###

Species on record: Rattus norvegicus
Assay: Open TG-GATES - Regimen: Daily Repeat
Type: toxicity, organism-based, Sprague-Dawley
Set-up: regimen Daily Repeat, gender Male, age 6 weeks
Settings: in vivo, po, 10 mg/kg, 72 h, tissue Plasma, route gavage, dose level Low, time 3 day
Overview of reported TC across a group of molecules:
Just the number please, in mg/dL, no unit attached.

Use these answered entries as a reference point.
CN(C)CCN(Cc1cccs1)c1ccccn1; 80.6
CN(C)CCCN1c2ccccc2CCc2ccccc21; 81.6
CC1=C(/C=C/C(C)=C/C=C/C(C)=C/CO)C(C)(C)CCC1; 78.2

Next molecule, please.
In: I would be grateful if you could share the reported TC for CC(C)OC(=O)C(C)(C)Oc1ccc(C(=O)c2ccc(Cl)cc2)cc1 [FENOFIBRATE] .
Out: 80.4

###

Species: Rattus norvegicus
Experiment: Open TG-GATES - Regimen: Daily Repeat
Assay type: toxicity, organism-based, Sprague-Dawley
Set-up: regimen Daily Repeat, gender Male, age 6 weeks
Conditions: in vivo, po, 300 mg/kg, […], tissue Blood, route gavage, dose level Middle, time 28 day
Entries and their MCH values follow.
Express your answer in pg, writing the number without its unit.

Some compounds with recorded MCH:
COC1=CC(=O)C[C@@H](C)[C@]12Oc1c(Cl)c(OC)cc(OC)c1C2=O; 19.9
CCOc1ccc(NC(=O)CC(C)O)cc1 (stereo not given); 19.3
COc1ccc2[nH]c([S+]([O-])Cc3ncc(C)c(OC)c3C)nc2c1 (stereo not given); 18.7

In: Can you share its MCH? I mean this compound: `NC(N)=Nc1nc(CSCCC(N)=NS(N)(=O)=O)cs1`
Out: 20

In: Requested field: MCH. Item: CCOC(=O)CCC(=O)O[C@H]1[C@H](O[C@@H]2[C@@H](C)[C@H](O[C@H]3C[C@@](C)(OC)[C@@H](O)[C@H](C)O3)[C@@H](C)C(=O)O[C@H](CC)[C@@](C)(O)[C@H](O)[C@@H](C)C(=O)[C@H](C)C[C@@]2(C)O)O[C@H](C)C[C@@H]1N(C)C [ERYTHROMYCIN ETHYLSUCCINATE]
Out: 19

###

Measured LDH, listed per entry for reference.
Species on record: Rattus norvegicus
Experiment: Open TG-GATES - Regimen: Single
Format: toxicity, organism-based, Sprague-Dawley
Design: regimen Single, gender Male, age 6 weeks
Conditions: in vivo, po, 100 mg/kg, 6 h, tissue Plasma, route gavage, dose level Low
Write down the numeric answer in IU/L and omit the unit.

# example entries with known answers
COc1ccc2[nH]c([S+]([O-])Cc3ncc(C)c(OC)c3C)nc2c1 (centres undefined); 219.6
CCOC(=O)CCC(=O)O[C@H]1[C@H](O[C@@H]2[C@@H](C)[C@H](O[C@H]3C[C@@](C)(OC)[C@@H](O)[C@H](C)O3)[C@@H](C)C(=O)O[C@H](CC)[C@@](C)(O)[C@H](O)[C@@H](C)C(=O)[C@H](C)C[C@@]2(C)O)O[C@H](C)C[C@@H]1N(C)C [ERYTHROMYCIN ETHYLSUCCINATE]; 182

In: Give its LDH value. Item: `COC1=CC(=O)C[C@@H](C)[C@]12Oc1c(Cl)c(OC)cc(OC)c1C2=O`
Out: 179.4

In: Given `NC(N)=Nc1nc(CSCCC(N)=NS(N)(=O)=O)cs1` , state its recorded LDH.
Out: 202

###

Species on record: Rattus norvegicus
Assay: Open TG-GATES - Regimen: Single
Type: toxicity, organism-based, Sprague-Dawley
Parameters: regimen Single, gender Male, age 6 weeks
Conditions: in vivo, po, 0 mg/kg, 24 h, tissue Plasma, route gavage, dose level Control
observable: gamma-GTP (IU/L)
The answer is to be given in IU/L; state only the numeric part.

COc1ccc2[nH]c([S+]([O-])Cc3ncc(C)c(OC)c3C)nc2c1 (stereo not drawn); 1.4
NNC(=O)c1ccncc1; 1
CC1=C(/C=C/C(C)=C/C=C/C(C)=C/CO)C(C)(C)CCC1; 1.2
CCOc1ccc(NC(=O)CC(C)O)cc1 (stereo not drawn); 1.2
COc1cc2c(c(OC)c1OC)-c1ccc(OC)c(=O)cc1[C@@H](NC(C)=O)CC2; 1

In: Which value of gamma-GTP has been reported for `NC(N)=Nc1nc(CSCCC(N)=NS(N)(=O)=O)cs1` in the records?
Out: 1

In: Look up gamma-GTP for this compound: `Cc1ccc(C)c(OCCCC(C)(C)C(=O)O)c1`
Out: 1

In: Fill in the blank: the reported gamma-GTP of `CN(C)CCCN1c2ccccc2CCc2ccc(Cl)cc21` is ____.
Out: 1

In: Look up gamma-GTP for this compound: `C[C@@H]1C[C@H]2[C@@H]3CCC4=CC(=O)C=C[C@]4(C)[C@@]3(F)[C@@H](O)C[C@]2(C)[C@@]1(O)C(=O)CO`
Out: 0

###

Species: Rattus norvegicus
Experiment: Open TG-GATES - Regimen: Daily Repeat
Type: toxicity, organism-based, Sprague-Dawley
Design: regimen Daily Repeat, gender Male, age 6 weeks
Conditions: in vivo, po, 100 mg/kg, 72 h, tissue Plasma, route gavage, dose level Low, time 3 day
observable: Na (meq/L)
The reply should contain only the number, in meq/L.

Some solved cases for reference:
CCOC(=O)CCC(=O)O[C@H]1[C@H](O[C@@H]2[C@@H](C)[C@H](O[C@H]3C[C@@](C)(OC)[C@@H](O)[C@H](C)O3)[C@@H](C)C(=O)O[C@H](CC)[C@@](C)(O)[C@H](O)[C@@H](C)C(=O)[C@H](C)C[C@@]2(C)O)O[C@H](C)C[C@@H]1N(C)C [ERYTHROMYCIN ETHYLSUCCINATE]; 141.4
CCOc1ccc(NC(=O)CC(C)O)cc1 (stereo not given) [BUCETIN]; 143
COc1ccc2[nH]c([S+]([O-])Cc3ncc(C)c(OC)c3C)nc2c1 (stereo not given) [OMEPRAZOLE]; 141.4
NC(N)=Nc1nc(CSCCC(N)=NS(N)(=O)=O)cs1 [FAMOTIDINE]; 139

In: Would you kindly share the measured Na for COC1=CC(=O)C[C@@H](C)[C@]12Oc1c(Cl)c(OC)cc(OC)c1C2=O [GRISEOFULVIN] ?
Out: 140.8
